Data provenance is patent US20110172168A1.

# Assay Target: T1, CEA-derived … (SEQ ID NO: 71)-HLA-A*0201 complex (biotin on the C-terminal biotinylation tag (enzymatic, BirA))
# T1 construct: also called soluble biotinylated HLA-A2-peptide complex; not shown: C-terminal biotinylation tag that replaces the transmembrane and cytoplasmic domains
# Method Description: Biacore SPR, pMHC immobilised
Readings of koff for the listed binders
Property Name: koff

# Binder, Experimental Value
records = [
    ("SEQ ID NO 56 (receptor) MAGHLPKPTLWAEPGSVITMDQPVTLRCQGGQETQEYRLYREKKTAPWITRIPQELVKKGQFPIPSITWEHAGRYRCYYGSDTSQWSASSDPLELVVTGVYIKPTLSAQPSPVVNSGGNVTLQCDSQVAFDGFILCKEGEDEHPQCLNSQPHARGSSRAIFSVGPVSPSRRWWYRCYAYPIWTPYEWTLGSDLLELDVDG", "≤ 2 s⁻¹"),
    ("SEQ ID NO 41 (receptor) MGHLPKPTLWAEPGSVITMDQPVTLRCQGGQETQEYRLYREKKTAPWITRIPQELVKKGQFPIPSITWEHAGRYRCYYGSDTAGRSESSDPLELVVTGVYIKPTLSAQPSPVVNSGGNVTLQCDSQVAFDGFILCKEGEDEHPQCLNSQPHARGSSRAIFSVGPVSPSRRWWYRCYAYMSWSPYEWSLPSDLLELDVDG", "≤ 2 s⁻¹"),
    ("SEQ ID NO 54 (receptor) MAGHLPKPTLWAEPGSVITMDQPVTLRCQGGQETQEYRLYREKKTAPWITRIPQELVKKGQFPIPSITWEHAGRYRCYYGSDTSQWSASSDPLELVVTGVYIKPTLSAQPSPVVNSGGNVTLQCDSQVAFDGFILCKEGEDEHPQCLNSQPHARGSSRAIFSVGPVSPSRRWWYRCYAYPIWTPYEWSTSSDLLELDVDG", "≤ 2 s⁻¹"),
    ("SEQ ID NO 38 (receptor) MAGHLPKPTLWAEPGSVITQGSPVTLRCQGGQETQEYRLYREKKTAPWITRIPQELVKKGQFPIPSITWEHAGRYRCYYGSDTSQWSASSDPLELVVTGVYIKPTLSAQPSPVVNSGGNVTLQCDSQVAFDGFILCKEGEDEHPQCLNSQPHARGSSRAIFSVGPVSPSRRWWYRCYAYMSWAPYEWSLPSDLLELDVDG", "≤ 2 s⁻¹"),
    ("SEQ ID NO 23 (receptor) MAGHLPKPTLWAEPGSVITMDQPVTLRCQGGQETQEYRLYREKKTAPWITRIPQELVKKGQFPIPSITWEHAGRYRCYYGSDTSQWSASSDPLELVVTGVYIKPTLSAQPSPVVNSGGNVTLQCDSQVAFDGFILCKEGEDEHPQCLNSQPHARGSSRAIFSVGPVSPSRRWWYRCYAYVEWLPYEWSLPSDLLELDVDG", "≤ 2 s⁻¹"),
    ("SEQ ID NO 57 (receptor) MAGHLPKPTLWAEPGSVITMDQPVTLRCQGGQETQEYRLYREKKTAPWITRIPQELVKKGQFPIPSITWEHAGRYRCYYGSDTSQWSASSDPLELVVTGVYIKPTLSAQPSPVVNSGGNVTLQCDSQVAFDGFILCKEGEDEHPQCLNSQPHARGSSRAIFSVGPVSPSRRWWYRCYAYDSNSPYEWTRGSDLLELDVDG", "≤ 2 s⁻¹"),
    ("SEQ ID NO 37 (receptor) MGHLPKPTLWAEPGSVITMDQPVTLRCQGGQETQEYRLYREKKTAPWITRIPQELVKKGQFPIPSITWEHAGRYRCYYGSDTAGRSESSDPLELVVTGVYIKPTLSAQPSPVVNSGGNVTLQCDSQVAFDGFILCKEGEDEHPQCLNSQPHARGSSRAIFSVGPVSPSRRWWYRCYAYPAWTPYEWSLPSDLLELDVDG", "≤ 2 s⁻¹"),
    ("SEQ ID NO 45 (receptor) MAGHLPKPTLWAEPGSVITMDQPVTLRCQGGQETQEYRLYREKKTAPWITRIPQELVKKGQFPIPSITWEHAGRYRCYYGSDTSQWSASSDPLELVVTGVYIKPTLSAQPSPVVNSGGNVTLQCDSQVAFDGFILCKEGEDEHPQCLNSQPHARGSSRAIFSVGPVSPSRRWWYRCYAYMSNSPYEWSLPSDLLELDVDG", "≤ 2 s⁻¹"),
    ("SEQ ID NO 60 (receptor) MGHLPKPTLWAEPGSVITMDQPVTLRCQGGQETQQYRLYREKKTAPWITRIPQELVKKGQFPIPSITWEHAGRYRCYYGSDTRQWSASSDPLELVVTGVYIKPTLSAQPSPVVNSGGNVTLQCDSQVAFDGFILCKEGEDDHPQCLNSQPHARGSSRAIFSVGPVSPSRRWRYRCYAYDSNSPYEWTRGSDLLELDVDG", "≤ 2 s⁻¹"),
    ("SEQ ID NO 43 (receptor) MAGHLPKPTLWAEPGSVITMDQPVTLRCQGGQETQEYRLYREKKTAPWITRIPQELVKKGQFPIPSITWEHAGRYRCYYGSDTSQWSASSDPLELVVTGVYIKPTLSAQPSPVVNSGGNVTLQCDSQVAFDGFILCKEGEDEHPQCLNSQPHARGSSRAIFSVGPVSPSRRWWYRCYAYMSYSPYEWSLPSDLLELDVDG", "≤ 2 s⁻¹"),
    ("SEQ ID NO 62 (receptor) MGHLPKPTLWAEPGSVITMDQPVTLRCQGGQETQEYRLYREKKTAPWITRIPQELVKKGQFPIPSITWEHAGRYRCYYGSDTSQWSASSDPLELVVTGVYIKPTLSAQPSPVVNSGGNVTLQCDSPFLTDGFILCKEGEDEHPQCLNSQPHARGSSRAIFSVGPVSPSRRWWYRCYAYMSWSPYEWSLPSDLLELDVDG", "≤ 2 s⁻¹"),
]
